Each recorded value in this set is attributed to patent US20220144956A1.

Overview of recorded pKd for various binders
# ASSAY TARGET: human TGFßRII (antigen of the Octet experiments) (human, UniProt P37173 23-166)
# Sequence (P37173 23-166): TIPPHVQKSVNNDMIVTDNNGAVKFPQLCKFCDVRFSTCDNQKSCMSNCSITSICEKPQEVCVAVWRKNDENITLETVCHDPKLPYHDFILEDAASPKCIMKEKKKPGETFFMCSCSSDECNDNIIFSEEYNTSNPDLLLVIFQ
# EXPERIMENTAL PROTOCOL: BLI (Octet)
As a rule, pKd stands for the negative log10 of the concentration, concentration in M.

# example entries with known answers
[[record]]
binder = "H1.87 L1 XENP34543 (antibody, V domains shown) VH: QLQVQESGPGLVKPSETLSLTCTVSGGSISNSYFSWGWIRQPPGKGLEWIGSFYYGEKTYYNPSLKSRATISIDTSKSQFSLKLSSVTAADTAVYYCPRGPTQIRGVIDSWGQGTLVTVSS VL: EIVLTQSPATLSLSPGERATLSCRASQSVRSYLAWYQQKPGQAPRLLIYDASNRATGIPARFSGSGSGTDFTLTISSLEPEDFAVYYCQQRSNWPPTFGQGTKVEIK"
observable = "pKd"
measured_result = 8.80

[[record]]
binder = "H1 L1.3 XENP34566 (antibody, V domains shown) VH: QLQVQESGPGLVKPSETLSLTCTVSGGSISNSYFSWGWIRQPPGKGLEWIGSFYYGEKTYYNPSLKSRATISIDTSKSQFSLKLSSVTAADTAVYYCPRGPTMIRGVIDSWGQGTLVTVSS VL: EIVLTQSPPTLSLSPGERATLSCRASQSVRSYLAWYQQKPGQAPRLLIYDASNRATGIPARFSGSGSGTDFTLTISSLEPEDFAVYYCQQRSNWPPTFGQGTKVEIK"
observable = "pKd"
measured_result = 9.26

[[record]]
binder = "H1.104 L1 XENP34560 (antibody, V domains shown) VH: QLQVQESGPGLVKPSETLSLTCTVSGGSISNSYFSWGWIRQPPGKGLEWIGSFYYGEKTYYNPSLKSRATISIDTSKSQFSLKLSSVTAADTAVYYCPRGPTMIRGVIDVWGQGTLVTVSS VL: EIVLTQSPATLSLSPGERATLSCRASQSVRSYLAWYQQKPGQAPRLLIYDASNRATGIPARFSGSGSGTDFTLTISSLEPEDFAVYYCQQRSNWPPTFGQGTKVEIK"
observable = "pKd"
measured_result = 9.22

[[record]]
binder = "H1 L1.5 XENP34568 (antibody, V domains shown) VH: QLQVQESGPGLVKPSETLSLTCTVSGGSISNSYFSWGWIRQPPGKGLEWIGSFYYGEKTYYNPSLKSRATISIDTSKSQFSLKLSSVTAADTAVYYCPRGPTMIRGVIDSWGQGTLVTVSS VL: EIVLTQSPATLSLSPGERVTLSCRASQSVRSYLAWYQQKPGQAPRLLIYDASNRATGIPARFSGSGSGTDFTLTISSLEPEDFAVYYCQQRSNWPPTFGQGTKVEIK"
observable = "pKd"
measured_result = 8.89


Field: next binder
INPUT: Fill in pKd for record H1.90 L1 XENP34546 (antibody, V domains shown) VH: QLQVQESGPGLVKPSETLSLTCTVSGGSISNSYFSWGWIRQPPGKGLEWIGSFYYGEKTYYNPSLKSRATISIDTSKSQFSLKLSSVTAADTAVYYCPRGPTMNRGVIDSWGQGTLVTVSS VL: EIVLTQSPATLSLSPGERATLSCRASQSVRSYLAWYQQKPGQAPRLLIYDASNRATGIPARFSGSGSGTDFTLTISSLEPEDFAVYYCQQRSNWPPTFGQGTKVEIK
OUTPUT: 10.13
